# System: P12-Ichikawa
# protocol text: cell viability relative to DMSO control; higher = less cytotoxic
# conditions: RPMI 5 mM glucose + 10% dialyzed FBS; 48 h; 0.000781 µM
property: cell viability (%)

1) COc1ncc(-c2ccc3c(Nc4cc(Oc5cc(F)cc(F)c5)cc(C(=O)O)c4)c([S+](=O)([O-])NC4CC4)cnc3c2)c(OC)n1 ... 91.1
2) N#C[C@H](O[C@@H]1O[C@H](CO[C@@H]2O[C@H](CO)[C@@H](O)[C@H](O)[C@H]2O)[C@@H](O)[C@H](O)[C@H]1O)c1ccccc1 ... 98.6
3) CCN(c1ccccc1)c1cc(NC)[n+](C)c(C)n1 ... 114
4) C=CCc1ccc(O)c(-c2ccc(O)c(CC=C)c2)c1 ... 105
5) O=C(Nc1cccnn1)N1CCC(=Cc2cccc(Oc3ccc(C(F)(F)F)cn3)c2)CC1 ... 92

###

compounds and their reported cell viability
# Test system: SEM cells
# protocol text: cell viability relative to DMSO control; higher = less cytotoxic
# conditions: RPMI 5 mM glucose + 10% dialyzed FBS; 48 h; 5.12 µM
property: cell viability (%)

1) C#CCN[C@@H]1CCc2ccccc21.CS(=O)(=O)O ... 42.8
2) OCCn1cc(-c2cnc3nnn(Cc4ccc5ncccc5c4)c3n2)cn1 ... 82
3) CCOC(=O)/C=C/[C@H](C[C@@H]1CCNC1=O)NC(=O)[C@@H](CC(=O)[C@@H](NC(=O)c1cc(C)on1)C(C)C)Cc1ccc(F)cc1 ... 129
4) O=c1[nH]c(=O)n(C2CCCO2)cc1F (stereo not drawn) ... 102
5) CC(C)OC1=CC=C2C(=C1)O\C=C(/C2=O)C3=CC=CC=C3 ... 147
6) CC1(C)C(N(O)C(=O)Nc2ccc(Cl)cc2)N(c2ccc(Cl)cc2)C(=O)N1CC(=O)N/N=C/C=C/c1ccc([N+](=O)[O-])o1 (stereo not drawn) ... 30.9
7) Cc1c(C)c2c(c(C)c1O)CCC(C)(COc1ccc(CC3SC(=O)NC3=O)cc1)O2 (stereo not drawn) ... 154
8) Cc1c[nH]c(-c2cnc(NCCNc3ccc(C#N)cn3)nc2-c2ccc(Cl)cc2Cl)n1 ... 24
9) OC[C@H]1O[C@@H]2[C@@H](OC\3=N\C(=N)\C=C/[N@@]23)[C@@H]1O ... 13
10) CCOC(=O)Nc1ccc(NCc2ccc(F)cc2)nc1N ... 104
11) CCOC1=CC=CC=C1N\2C(=O)C3=C(C=CC=C3)\N=C2C(C)N4CCN(CC4)C(=O)COC5=CC=C(Cl)C=C5 (stereo not drawn) ... 6.21
12) CCOC(=O)\C1=C\[C@@H](OC(CC)CC)[C@H](NC(C)=O)[C@@H](N)C1 ... 97.7
13) CC(C)(O)/C=C\C(=O)[C@](C)(O)[C@H]1[C@H](O)C[C@]2(C)[C@@H]3CC=C4[C@@H](C=C(O)C(=O)C4(C)C)[C@]3(C)C(=O)C[C@@]12C ... 12.5
14) COc1cc(CNC(=O)CCCC/C=C/C(C)C)ccc1O ... 27.2
15) Cc1noc(-c2ccc(CSCCC(=O)O)cc2)c1NC(=O)OC(C)c1ccccc1Cl (stereo not drawn) ... 117
16) N=C1N[C@H]2[C@H](CS[C@H]2CCCCC(=O)O)N1 ... 122
17) Cc1ncc([N+](=O)[O-])n1CC(C)O (stereo not drawn) ... 110
18) Cc1onc(-c2ccccc2)c1C(=O)N[C@@H]1C(=O)N2[C@@H]1SC(C)(C)[C@@H]2C(=O)[O-].[Na+] ... 111

These data points were gathered from the supplement of paper PMC11451515.
